Where these numbers come from: ChEMBL document CHEMBL1201862

- System: ACHN
- test.summary: NCI tumour cell line growth inhibition, 48 h
The source made the active and inactive calls. Cut-off read from the data, not from the text of the source: active = GI50 up to about 1.1 µM and inactive = higher.

| compound | GI50 |
| --- | --- |
| CC(C)[Si](Oc1cc2c3c(ccc2c(O)c1[C@@H](C)CO[Si](C)(C)C(C)(C)C)C(C)(C)CCC3)(C(C)C)C(C)C | > 100 µM (inactive) |
| COc1cccc2c1-c1ccccc1[C@H](Nc1ccccc1)[C@@]2(C)O | 9.57 µM (inactive) |
| O=C(Nc1ccccc1)C(=O)C(C(=O)c1ccccc1F)C1OC(=O)c2ccccc21 (stereo not drawn) | 49.9 µM (inactive) |

====

- Tested on: SNB-19
- test.summary: NCI tumour cell line growth inhibition, 48 h
Active and inactive are the calls of the source. Cut-off read from the data, not from the text of the source: active = GI50 up to about 1.1 µM and inactive = higher.
Classes used: active, inactive

| compound | label |
| --- | --- |
| CN1C(c2ccccc2)CC(C)(O)CC1c1ccccc1 (stereo not given) | inactive |
| Brc1ccc2c3c1[C@@H]1O[C@@H]1c1cccc(c1-3)[C@@H]1O[C@H]21 | inactive |
| CC(C)[Si](Oc1cc2c3c(ccc2c(O)c1[C@@H](C)CO[Si](C)(C)C(C)(C)C)C(C)(C)CCC3)(C(C)C)C(C)C | inactive |
| O=C(Nc1ccccc1)C(=O)C(C(=O)c1ccccc1F)C1OC(=O)c2ccccc21 (stereo not given) | inactive |
| CCCCC(C#N)(OP1(=O)OC(c2ccccc2)C(C)N1C)c1ccccc1 (stereo not given) | inactive |
| COc1cc(OC)c(C#N)c(OC)c1C | inactive |
| COc1ccc(C2(CC(C)O)SCCCS2)cc1 (stereo not given) | inactive |
| c1ccc(/C(=N\Nc2nc3ccccc3[nH]2)c2ccccn2)cc1 | inactive |
| COc1ccc(-n2/c(=N/C(=S)N(C)C)ss/c2=N\C(=S)N(C)C)cc1 | inactive |
| CC(=O)OCCCC(NC(=O)OC(C)(C)C)C(=O)NC(CCCOC(C)=O)C(=O)NC(Cc1ccc([N+](=O)[O-])cc1)C(=O)NCC(=O)OCc1ccccc1 (stereo not given) | inactive |
| C=C(Cl)COC(=O)Nc1cccc(Cl)c1 | inactive |
| CC(C)(C)C(=O)/C=C/c1ccc(Oc2ccccc2)cc1 | inactive |
| NC(=O)N/N=C1\CC2C3CC4C2C4C13 (stereo not given) | inactive |
| CN1CCN(c2ccc3[nH]c(-c4ccc5[nH]c(-c6ccc(O)cc6)nc5c4)nc3c2)CC1 | inactive |
| c1ccc2c(c1)C1=NCCN1c1ccccc1-2 | inactive |
| C=C(NC(=O)C(=C)NC(=O)c1csc(C2=NC3c4csc(n4)C4NC(=O)c5csc(n5)C(C(C)(O)C(C)O)NC(=O)C5CSC(=N5)/C(=C/C)NC(=O)C(C(C)O)NC(=O)c5csc(n5)C3(CC2)NC(=O)C(C)NC(=O)C(=C)NC(=O)C(=C)NC(=O)C(C(C)C)NC2C=Cc3c(C(C)O)cc(nc3C2O)C(=O)OC4C)n1)C(N)=O (stereo not given) | inactive |
| CCC1(O)CC(CCN(Cc2ccccc2)C(=O)OCc2ccccc2)C(OCc2ccccc2)C1O (stereo not given) | inactive |
| Nc1ccc(-c2cssc2=S)cc1 | inactive |
| Cc1ccc(S(=O)(=O)NC(=O)NCCc2c[nH]cn2)cc1 | inactive |
| O=C1CCC(=O)c2cc(Br)ccc2N1 | inactive |
| N=C(N)NCCCC(Nc1c2ccccc2[n+]([O-])c2ccccc12)C(=O)O (stereo not given) | inactive |
| CC(C)(C)CNCCO | inactive |
| CCN(CC)c1nc(=O)c(C(=O)C(C)(C)C)c(C(C)(C)C)o1 | inactive |
| Cc1ccc(-n2c(=O)c3nn4c(=O)n(-c5ccc(C)cc5)c(=O)c4nn3c2=O)cc1 | inactive |
| COc1cc(S(=O)(=O)Nc2ccc(-c3csc(/N=C\c4ccccc4)n3)cc2)ccc1Cl | inactive |
| CC1CCC2c3c([nH]c4ccccc34)C3C(=O)N(c4ccccc4)C(=O)C3C2C1 (stereo not given) | inactive |
| CCC1(O)CC(OC2CC(N(C)C)C(OC3CC(O)C(OC4OC(C)C(=O)C=C4N)C(C)O3)C(C)O2)c2c(cc3c(c2O)C(=O)c2c(O)cccc2C3=O)C1C(=O)OC (stereo not given) | active |
| C=C(C)C1CC=C(C)C(=O)C1 (stereo not given) | inactive |
| C=C1C(O)CC[C@]2(C)C1C1OC(C)(C)O[C@]13CC(=O)C(C)=C([C@H]1OC(C)(C)OC12)C3(C)C (stereo not given in full) | inactive |
| CN(C)c1ncnc2c1ncn2CCn1cnc2c(N(C)C)ncnc21 | inactive |

====

- System: OVCAR-4
- test.summary: NCI tumour cell line growth inhibition, 48 h
The source made the active and inactive calls. Cut-off read from the data, not from the text of the source: active = GI50 up to about 1.1 µM and inactive = higher.
This section presents compounds with their documented GI50 values.
parameter: GI50

| compound | observed.result |
| --- | --- |
| N#Cc1c(C#N)c(SSc2c(C#N)c(C#N)c(N)n2-c2ccc(F)cc2)n(-c2ccc(F)cc2)c1N | 2.77 µM (inactive) |
| C=C1C(=O)O[C@@H]2C[C@]3(C)[C@@H](C[C@H]12)[C@](C)(O)CC[C@@H]3O | > 100 µM (inactive) |
| CC(=O)OC(OC(C)=O)c1ncccc1C(=O)OC(C)C | > 100 µM (inactive) |
| COc1ccc(Br)c(C(=O)N2CCc3ccccc32)c1N | 34.8 µM (inactive) |
| O=Cc1cn(C(=O)c2ccccc2)c2ccccc12 | > 100 µM (inactive) |
| Oc1cccc(-c2ccc3c4c2O[C@H]2c5[nH]c6ccccc6c5C[C@@]5(O)[C@@H](C3)N(CC3CC3)CC[C@]425)c1 | 1.61 µM (inactive) |
| Cn1c(=O)sc2cc(C(=S)N3CCOCC3)ccc21 | > 100 µM (inactive) |
| CCn1cc(C(=O)O)c(=O)c2cc(F)c(N3CCN(CN4C(=O)/C(=N\c5ncc(Cc6cc(OC)c(OC)c(OC)c6)c(N)n5)c5cc(Cl)ccc54)CC3)cc21 | > 100 µM (inactive) |
| CN(C(=O)c1ccc(Cl)s1)C(=S)N(C)C(=O)c1ccc(Cl)s1 | > 10 µM (inactive) |
| O=C(Nc1ccccc1)C(=O)C(C(=O)c1ccccc1F)C1OC(=O)c2ccccc21 (stereo unspecified) | 31.6 µM (inactive) |
| O=c1n(-c2ccccc2)c(=O)n2n1C1C=CC2CCCCCC1 | > 100 µM (inactive) |
| COc1ccc(-c2cc(-c3cc(F)c(Cl)cc3Cl)on2)cc1OC | 10.1 µM (inactive) |
| NC(=O)Nc1ccc(S(=O)(=O)Nc2ccc(S(N)(=O)=O)cc2)cc1 | > 100 µM (inactive) |
| CS/C(=N\c1ccccc1)N(c1ccccc1)c1nc(=[N+](C)C)ss1.[O-][Cl+3]([O-])([O-])[O-] | 9.46 µM (inactive) |
| O=C(/C=C\c1ccc([N+](=O)[O-])cc1)c1ccccc(=O)c1O | 2.47 µM (inactive) |
| COc1cccc(CCn2c(N)c(-c3ccccc3)c3ccc([N+](=O)[O-])cc3c2=O)c1 | 1.79 µM (inactive) |
| COc1ccccc1NC(=S)Nc1cccc(C)n1 | > 100 µM (inactive) |
| O=C1CC(/C=C/c2ccco2)=C(O)C1=O | 14.2 µM (inactive) |
| CCC1(O)CC(OC2CC(N(C)C)C(OC3CC(O)C(OC4OC(C)C(=O)C=C4N)C(C)O3)C(C)O2)c2c(cc3c(c2O)C(=O)c2c(O)cccc2C3=O)C1C(=O)OC (stereo unspecified) | 0.01 µM (active) |
| c1ccc(C2C3=C(CCCC3)Nc3nc4cc5ccccc5cc4n32)cc1 (stereo unspecified) | > 100 µM (inactive) |
| N#CC(NNC(=O)c1ccccc1O)c1ccccc1O (stereo unspecified) | 9.64 µM (inactive) |
| O=C(c1ccccc1)[C@H]1Nc2cnccc2C2c3ccccc3CC21 (stereo partly specified) | 0.564 µM (active) |
| OC(c1nc2ccccc2s1)(C(F)(F)F)C(F)(F)F | > 100 µM (inactive) |
| O=C1C=CC(=O)c2c(O)c(N(CCCl)CCCl)c(Cl)c(O)c21 | 4.49 µM (inactive) |
| CSc1cc(N)ccc1/N=N/c1ccc(S(N)(=O)=O)cc1 | 27.5 µM (inactive) |
| O=C(CCN1CCOCC1)Nc1ccc2sc3ccccc3c(=O)c2n1 | 61.1 µM (inactive) |
| COc1ccc(-c2cc(-c3cc4cc(Br)ccc4nc3Cl)c(C#N)c(N)n2)cc1 | > 12.5 µM (inactive) |
| CS(=O)(=O)C1S(=O)(=O)OCCOS1(=O)=O | > 100 µM (inactive) |
| Cn1c(=O)c2nc3sc4ccccc4c(=N)n3c2n(C)c1=O | > 100 µM (inactive) |
| COc1cc(C2SCC(=O)N2c2ccc(NC(=O)c3ccc(N4C(=O)CSC4c4cc(OC)c(OC)c(OC)c4)cc3)cc2)cc(OC)c1OC (stereo unspecified) | 33 µM (inactive) |
| Ic1ncnc2c1ncn2C1CCCO1 (stereo unspecified) | > 100 µM (inactive) |
| CC(C)S(=O)(=O)ON1C(=O)c2ccc(N(C)C)cc2C1=O | 17.7 µM (inactive) |
| NNC(=O)CCC(=O)Nc1ccc(Cl)cc1Cl | > 100 µM (inactive) |
| CCCCC(C(=O)N/N=C/c1ccc([N+](=O)[O-])o1)C(=O)N/N=C/c1ccc([N+](=O)[O-])o1 | 1.74 µM (inactive) |
| CCOC(=O)c1c(-c2ccccc2)c(-c2ccccc2)cn1C | > 10 µM (inactive) |
| C=C(C)C1CC=C(C)C(=O)C1 (stereo unspecified) | > 100 µM (inactive) |
